# system name: Nuclear receptor ROR-gamma (Homo sapiens, UniProt P51449)
# Sequence (P51449 whole entry): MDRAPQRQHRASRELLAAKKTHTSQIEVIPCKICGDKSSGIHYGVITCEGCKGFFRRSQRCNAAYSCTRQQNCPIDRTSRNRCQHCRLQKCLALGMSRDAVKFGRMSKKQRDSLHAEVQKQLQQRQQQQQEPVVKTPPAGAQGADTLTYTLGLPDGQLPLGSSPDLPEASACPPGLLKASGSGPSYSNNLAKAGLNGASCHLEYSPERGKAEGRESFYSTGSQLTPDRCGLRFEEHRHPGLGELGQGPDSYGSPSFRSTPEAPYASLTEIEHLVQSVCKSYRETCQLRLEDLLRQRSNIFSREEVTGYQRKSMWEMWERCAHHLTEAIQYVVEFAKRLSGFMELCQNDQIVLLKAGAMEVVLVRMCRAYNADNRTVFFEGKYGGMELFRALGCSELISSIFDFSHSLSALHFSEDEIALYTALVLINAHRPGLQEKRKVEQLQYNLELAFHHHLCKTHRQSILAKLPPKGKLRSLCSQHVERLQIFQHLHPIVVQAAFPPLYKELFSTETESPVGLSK
# procedure text: Inverse agonist activity at europium-labeled human RORgammat LBD assessed as inhibition of XL665-labeled co-activator SRC1 recruitment incubated for 1 hr by dual FRET assay
value kind: EC50 (nM)
Report the figure in nM without appending any unit label.

**Query** Report value: EC50, system: Nuclear receptor ROR-gamma (Homo sapiens, UniProt P51449), compound: CC(=O)N1CCN(c2ccc3c(c2)CCN(S(=O)(=O)N(C)Cc2ccc(C(F)(F)F)cc2)C3)CC1
**Result** 1980

====

# system name: Nuclear receptor ROR-gamma (Homo sapiens)
# Sequence (P51449 whole entry): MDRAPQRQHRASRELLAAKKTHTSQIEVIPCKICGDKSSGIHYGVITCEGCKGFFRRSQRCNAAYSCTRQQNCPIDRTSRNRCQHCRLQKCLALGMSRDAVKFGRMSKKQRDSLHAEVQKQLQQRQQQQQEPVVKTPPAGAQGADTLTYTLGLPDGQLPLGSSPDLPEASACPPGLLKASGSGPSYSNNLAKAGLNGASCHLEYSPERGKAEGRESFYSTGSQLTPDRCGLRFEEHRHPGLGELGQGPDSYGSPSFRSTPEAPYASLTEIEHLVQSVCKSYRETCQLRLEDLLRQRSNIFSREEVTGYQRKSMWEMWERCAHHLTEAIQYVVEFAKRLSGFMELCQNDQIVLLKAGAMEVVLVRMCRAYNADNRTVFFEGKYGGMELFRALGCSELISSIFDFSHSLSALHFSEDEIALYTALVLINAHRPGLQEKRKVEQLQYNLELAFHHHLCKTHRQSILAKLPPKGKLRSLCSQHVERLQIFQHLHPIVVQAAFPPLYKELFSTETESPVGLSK
# procedure text: Agonist activity at human RORgammat LBD expressed in HEK293T cells incubated for 16 to 20 hrs by Gal4-luciferase reporter gene assay
# Type: cell-based
value kind: EC50 (nM)
Just the number in nM, nothing appended.

**Query** Let me know recorded EC50 for CC(=O)N1CCN(c2ccc3c(c2)CCN(S(=O)(=O)N(C)Cc2ccccc2Cl)C3)CC1 , thanks.
**Result** 740

**Query** Kindly indicate its recorded EC50. Item: CC(=O)N1CCN(c2ccc3c(c2)CCN(S(=O)(=O)N(C)Cc2c(F)cccc2Cl)C3)CC1
**Result** 190

====

# system name: Nuclear receptor ROR-gamma (Homo sapiens)
# procedure text: Agonist activity at europium-labeled human RORgammat LBD assessed as induction of XL665-labeled co-activator SRC1 recruitment incubated for 1 hr by dual FRET assay
Would you kindly list pEC50 for each of these compounds?
// returns pEC50 (minus log10 of molar concentration), number only

**Query** Give pEC50 only, for CC(=O)N1CCN(c2ccc3c(c2)CCN(S(=O)(=O)N(C)Cc2cc(F)ccc2F)C3)CC1 , using Nuclear receptor ROR-gamma (Homo sapiens) data.
**Result** 6.83

**Query** Report measured pEC50 on Nuclear receptor ROR-gamma (Homo sapiens); entry: CC(=O)N1CCN(c2ccc3c(c2)CCN(S(=O)(=O)N(C)Cc2c(F)cccc2Cl)C3)CC1
**Result** 7.68

**Query** Lab note: Nuclear receptor ROR-gamma (Homo sapiens) assay, enter pEC50 for CC(=O)N1CCN(c2ccc3c(c2)CCN(S(=O)(=O)N(C)Cc2cccc(F)c2)C3)CC1 here
**Result** 6.26

**Query** Fill: pEC50 (Nuclear receptor ROR-gamma (Homo sapiens)) for this compound CC(=O)N1CCN(c2ccc3c(c2)CCN(S(=O)(=O)N(C)CCc2ccccc2)C3)CC1
**Result** 5.65

**Query** GET pEC50 where system = Nuclear receptor ROR-gamma (Homo sapiens) and item = CC(=O)N1CCN(c2ccc3c(c2)CCN(S(=O)(=O)N(C)Cc2ccc(F)cc2)C3)CC1
**Result** 5.99

**Query** Report pEC50 on Nuclear receptor ROR-gamma (Homo sapiens) for this entry: CC(=O)N1CCN(c2ccc3c(c2)CCN(S(=O)(=O)N(C)Cc2cccc(C)c2)C3)CC1
**Result** 6.67

**Query** Write down the reported pEC50 (system: Nuclear receptor ROR-gamma (Homo sapiens)) of CC(=O)N1CCN(c2ccc3c(c2)CCN(S(=O)(=O)N(C)c2nccc(C(F)(F)F)n2)C3)CC1
**Result** 5.20

**Query** Identify measured pEC50 obtained with Nuclear receptor ROR-gamma (Homo sapiens) for CC(=O)N1CCN(c2ccc3c(c2)CCN(S(=O)(=O)N(C)CCCc2ccccc2)C3)CC1 .
**Result** 6.24

**Query** Find the measured pEC50 of CC(=O)N1CCN(c2ccc3c(c2)CCN(S(=O)(=O)N(C)Cc2ccccc2C)C3)CC1 with Nuclear receptor ROR-gamma (Homo sapiens) as test system.
**Result** 6.66

**Query** Report the value of pEC50 obtained on Nuclear receptor ROR-gamma (Homo sapiens) for CC(=O)N1CCN(c2ccc3c(c2)CCN(S(=O)(=O)N(C)Cc2ccccn2)C3)CC1 .
**Result** 4.91

**Query** Jot down pEC50 (Nuclear receptor ROR-gamma (Homo sapiens)) of CC(=O)N1CCN(c2ccc3c(c2)CCN(S(=O)(=O)N(C)Cc2ccccc2F)C3)CC1 .
**Result** 6.45

**Query** Return reported pEC50 for target or system Nuclear receptor ROR-gamma (Homo sapiens), item CC(=O)N1CCN(c2ccc3c(c2)CCN(S(=O)(=O)N(C)Cc2ccccc2)C3)CC1 .
**Result** 6.25

**Query** With Nuclear receptor ROR-gamma (Homo sapiens) as the test system, provide measured pEC50 for this compound: CC(=O)N1CCN(c2ccc3c(c2)CCN(S(=O)(=O)N(C)Cc2c(F)cccc2Cl)C3)[C@H](C)C1
**Result** 7.64

**Query** For Nuclear receptor ROR-gamma (Homo sapiens), give the measured pEC50 of the entry CC(=O)N1CCN(c2ccc3c(c2)CCN(S(=O)(=O)N(C)Cc2ccccc2Cl)C3)CC1
**Result** 6.01

**Query** Name the value of pEC50 reported for CC(=O)N1CCN(c2ccc3c(c2)CCN(S(=O)(=O)N(C)Cc2cccc(Cl)c2)C3)CC1 when tested on Nuclear receptor ROR-gamma (Homo sapiens).
**Result** 6.86
